test system: K562; test: Cytotoxicity against human K562 cells after 72 hrs by MTT assay; format: functional, cell-based; settings: K562, 72 h
pIC50: −log10 of the molar value.
Field: pIC50. Provide a value for each of the compounds that follow.

chemical_smiles	target_system	pIC50
COC(=O)c1[nH]cc(C/C=C(\C)CCC=C(C)C)c1NC(C)=O	K562	< 4.52

Shift focus to the following entry.
`C/C=C(\C)[C@H](OC)[C@H](C)/C=C(C)/C=C/C/C(C)=C/Cc1nc(OC)cc(O)c1C` has a reported pIC50 of < 4.52

---

test system: NB-4; assay: Cytotoxicity against human NB4 cells after 72 hrs by MTT assay; format: functional, cell-based; conditions: NB-4, 72 h
Where a name gives a salt, the structure may show the parent alone.
Field: pIC50. Provide a value for each of the compounds that follow.
One number for each entry, as −log10 of the molar value.

compound	target_system	measured_metric	obs_value
C/C=C(\C)[C@H](OC)[C@H](C)/C=C(C)/C=C/C/C(C)=C/Cc1nc(OC)cc(O)c1C	NB-4	pIC50	7.43

Shift focus to the following entry.
COc1cccc2c1C(=O)c1c(O)c3c(c(O)c1C2=O)C[C@@](O)(C(=O)CO)C[C@@H]3O[C@H]1C[C@H](N)[C@H](O)[C@H](C)O1 [DOXORUBICIN HYDROCHLORIDE] has a reported pIC50 of 6.40
